Each item that follows carries a reported IC50.
# Test system: MCF7
# test-summary: Proliferation assay MCF7
# Type: cell-based, human
# condition-label: MCF7, estrogen receptor-positive mamma carcinoma; 4 days, crystal violet
Give the value in nM but do not write nM after it.

> print(dat)
                                   compound  measured
1  C[C@@H](Nc1nc(Nc2ccc(S(C)(=N)=O)cc2)ncc1C(F)(F)F)C(C)(C)O (mixture of isomers) [Example 9-SI-1]        89
2  C[C@@H](O)[C@@H](C)Oc1nc(Nc2ccc(S(=N)(=O)C3CC3)cc2)ncc1C(F)(F)F (mixture of isomers) [Example 1-SI-1]        48
3  C[C@@H](Nc1nc(Nc2ccc(S(C)(=N)=O)cc2)ncc1C(F)(F)F)C(C)(C)O (mixture of isomers) [Example 9-SI-2]       271
4  C[C@@H](O)[C@@H](C)Oc1nc(Nc2ccc(S(C)(=N)=O)cc2)ncc1C(F)(F)F (mixture of isomers) [Example 2-SI-2]        11
5  C[C@@H](O)[C@@H](C)Nc1nc(Nc2ccc(S(C)(=N)=O)cc2)ncc1C(F)(F)F (mixture of isomers) [Example 8-SI-2]        23

Query: Param item = CCS(=N)(=O)c1ccc(Nc2ncc(C(F)(F)F)c(N[C@H](C)[C@@H](C)O)n2)cc1 (mixture of isomers) [Example 6-SI-2] ; retrieve measured IC50.
Reply: 26

* * *

# test-target: CDK1/CycB (Homo sapiens, UniProt P06493)
# Sequence (P06493 whole entry): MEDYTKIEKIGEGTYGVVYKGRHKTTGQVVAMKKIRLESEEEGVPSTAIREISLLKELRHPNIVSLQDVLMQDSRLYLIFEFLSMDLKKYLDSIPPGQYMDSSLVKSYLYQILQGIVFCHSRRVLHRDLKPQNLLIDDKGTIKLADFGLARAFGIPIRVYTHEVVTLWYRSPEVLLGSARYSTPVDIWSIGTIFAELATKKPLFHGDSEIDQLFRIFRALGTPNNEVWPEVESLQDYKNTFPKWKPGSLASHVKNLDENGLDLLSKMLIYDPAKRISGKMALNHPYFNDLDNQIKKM
# Sequence (P14635 whole entry partner): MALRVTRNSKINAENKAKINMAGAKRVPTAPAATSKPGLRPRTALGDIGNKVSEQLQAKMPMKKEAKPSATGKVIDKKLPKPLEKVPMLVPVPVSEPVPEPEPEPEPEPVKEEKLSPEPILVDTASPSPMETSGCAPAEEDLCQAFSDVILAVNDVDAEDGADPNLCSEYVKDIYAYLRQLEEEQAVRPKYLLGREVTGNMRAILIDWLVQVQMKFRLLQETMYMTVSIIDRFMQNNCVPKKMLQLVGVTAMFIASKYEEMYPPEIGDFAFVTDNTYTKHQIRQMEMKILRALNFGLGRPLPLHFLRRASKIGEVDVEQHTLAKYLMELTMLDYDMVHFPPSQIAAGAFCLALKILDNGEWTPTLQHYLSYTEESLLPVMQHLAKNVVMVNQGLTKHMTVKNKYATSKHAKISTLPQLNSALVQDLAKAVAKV
# test-summary: CDK1/CycB kinase assay (Assay 1)
# condition-label: 0.5 μM ATP, histon IIIS, 10 min 22° C.; read-out: CDK1/CycB (Assay 1) Concentration for half-maximal inhibition of the enzyme activity, IC50
pIC50 by entry:
Here pIC50 is given on a logarithmic scale as minus log10 of the concentration in mol/L.

// below: answered compounds
> print(dat)
                                   compound  metric  measured
1  CCS(=N)(=O)c1ccc(Nc2ncc(C(F)(F)F)c(N[C@H](C)[C@@H](C)O)n2)cc1 (mixture of isomers) [Example 6-SI-1]   pIC50      8.00
2  C[C@@H](Oc1nc(Nc2ccc(S(C)(=N)=O)cc2)ncc1C(F)(F)F)C(C)(C)O (mixture of isomers)   pIC50      7.89
3  CCS(=N)(=O)c1ccc(Nc2ncc(C(F)(F)F)c(N[C@H](C)C(C)(C)O)n2)cc1 (single isomer, unassigned) [Example 7-SI-1]   pIC50      7.62
4  C[C@@H](O)[C@@H](C)Nc1nc(Nc2ccc(S(C)(=N)=O)cc2)ncc1C(F)(F)F (single isomer, unassigned) [Example 8-SI-1]   pIC50      7.96
5  C[C@@H](Nc1nc(Nc2ccc(S(=N)(=O)C3CC3)cc2)ncc1C(F)(F)F)C(C)(C)O (mixture of isomers) [Example 5-SI-2]   pIC50      8.05

Query: pIC50 lookup needed for C[C@@H](O)[C@@H](C)Oc1nc(Nc2ccc(S(C)(=N)=O)cc2)ncc1C(F)(F)F (single isomer, unassigned) [Example 2-SI-1] , thanks.
Reply: 8.30

Query: What does the record list as pIC50 for C[C@@H](Nc1nc(Nc2ccc(S(C)(=N)=O)cc2)ncc1C(F)(F)F)C(C)(C)O (single isomer, unassigned) [Example 9-SI-2] ?
Reply: 7.77

Query: Would you kindly share the measured pIC50 for CCS(=N)(=O)c1ccc(Nc2ncc(C(F)(F)F)c(N[C@H](C)[C@@H](C)O)n2)cc1 (mixture of isomers) [Example 6-SI-2] ?
Reply: 8.30

Query: Would you kindly share the measured pIC50 for C[C@@H](Nc1nc(Nc2ccc(S(C)(=N)=O)cc2)ncc1C(F)(F)F)C(C)(C)O (single isomer, unassigned) [Example 9-SI-1] ?
Reply: 8.40

* * *

# Tested on: MCF7
# test-summary: Proliferation assay MCF7
# Format: cell-based, human
# condition-label: Homo sapiens, MCF7, 96 h, MCF7, estrogen receptor-positive mamma carcinoma; 4 days, crystal violet
metric: pIC50
Formally, pIC50 is defined as -log10 of the concentration c, with c in mol/L.

Recorded results for 3 molecules are shown here.
> print(dat)
                                   molecule  metric  measured
1  C[C@@H](O)[C@@H](C)Nc1nc(Nc2ccc(S(C)(=N)=O)cc2)ncc1C(F)(F)F (single isomer, unassigned) [Example 8-SI-1]   pIC50      7.36
2  C[C@@H](Oc1nc(Nc2ccc(S(C)(=N)=O)cc2)ncc1C(F)(F)F)C(C)(C)O (mixture of isomers) [Example 3]   pIC50      7.15
3  C[C@@H](O)[C@@H](C)Nc1nc(Nc2ccc(S(=N)(=O)C3CC3)cc2)ncc1C(F)(F)F (mixture of isomers) [Example 4-SI-1]   pIC50      7.47

Okay, now this molecule:
Query: // lookup pIC50 for C[C@@H](Nc1nc(Nc2ccc(S(=N)(=O)C3CC3)cc2)ncc1C(F)(F)F)C(C)(C)O (mixture of isomers) [Example 5-SI-1]
Reply: 7.48

* * *

# Tested on: MCF7
# test-summary: Proliferation assay MCF7
# Type: cell-based, human
# condition-label: MCF7, estrogen receptor-positive mamma carcinoma; 4 days, crystal violet
metric: pIC50
Quick note: pIC50 means taking -log10 of the concentration in moles per liter.

See these solved cases before continuing.
> print(dat)
                                   compound  metric  measured
1  CCS(=N)(=O)c1ccc(Nc2ncc(C(F)(F)F)c(N[C@H](C)[C@@H](C)O)n2)cc1 (mixture of isomers) [Example 6-SI-1]   pIC50      7.23
2  CCS(=N)(=O)c1ccc(Nc2ncc(C(F)(F)F)c(N[C@H](C)C(C)(C)O)n2)cc1 (mixture of isomers) [Example 7-SI-1]   pIC50      6.97
3  C[C@@H](O)[C@@H](C)Oc1nc(Nc2ccc(S(C)(=N)=O)cc2)ncc1C(F)(F)F (mixture of isomers) [Example 2-SI-1]   pIC50      7.41
4  C[C@@H](Nc1nc(Nc2ccc(S(=N)(=O)C3CC3)cc2)ncc1C(F)(F)F)C(C)(C)O (mixture of isomers)   pIC50      7.47

Query: Which pIC50 value belongs to C[C@@H](O)[C@@H](C)Oc1nc(Nc2ccc(S(=N)(=O)C3CC3)cc2)ncc1C(F)(F)F (mixture of isomers) [Example 1-SI-2] ?
Reply: 7.82

Query: What does the record list as pIC50 for CCS(=N)(=O)c1ccc(Nc2ncc(C(F)(F)F)c(N[C@H](C)C(C)(C)O)n2)cc1 (mixture of isomers) [Example 7-SI-2] ?
Reply: 7.41

* * *

# test-target: CDK2/CycE (Homo sapiens)
# test-summary: CDK2/CycE kinase assay (Assay 2)
# condition-label: 0.5 μM ATP, histon IIIS, 10 min 22° C.; read-out: CDK2/CycE (Assay 2) Concentration for half-maximal inhibition of the enzyme activity, IC50
metric: IC50 (nM)
Form entry: value (nM) — number only.

> print(dat)
                                   compound  measured
1  C[C@@H](O)[C@@H](C)Nc1nc(Nc2ccc(S(=N)(=O)C3CC3)cc2)ncc1C(F)(F)F (mixture of isomers)         6
2  C[C@@H](O)[C@@H](C)Nc1nc(Nc2ccc(S(C)(=N)=O)cc2)ncc1C(F)(F)F (single isomer, unassigned) [Example 8-SI-1]         6

Now turn to the next compound.
Query: Which measured IC50 belongs to CCS(=N)(=O)c1ccc(Nc2ncc(C(F)(F)F)c(N[C@H](C)[C@@H](C)O)n2)cc1 (mixture of isomers) [Example 6-SI-2] , tested on CDK2/CycE (Homo sapiens)?
Reply: 5

* * *

# Test system: HeLa
# test-summary: Proliferation assay HeLa
# Type: cell-based
# condition-label: Homo sapiens, 96 h, cervix carcinoma, 4 days, crystal violet
Reported IC50 is given for each of the following compounds.

Would you please look over these solved cases?
> print(dat)
                                   compound  measured
1  CCS(=N)(=O)c1ccc(Nc2ncc(C(F)(F)F)c(N[C@H](C)[C@@H](C)O)n2)cc1 (mixture of isomers)     32 nM
2  CCS(=N)(=O)c1ccc(Nc2ncc(C(F)(F)F)c(N[C@H](C)C(C)(C)O)n2)cc1 (single isomer, unassigned)     33 nM

Query: Kindly state the measured IC50 obtained for C[C@@H](O)[C@@H](C)Oc1nc(Nc2ccc(S(C)(=N)=O)cc2)ncc1C(F)(F)F (single isomer, unassigned) with HeLa.
Reply: 13 nM

Query: Fill in the recorded IC50 for this compound, with HeLa as test system: C[C@@H](Nc1nc(Nc2ccc(S(=N)(=O)C3CC3)cc2)ncc1C(F)(F)F)C(C)(C)O (mixture of isomers)
Reply: 50 nM

Query: HeLa / IC50 / C[C@@H](O)[C@@H](C)Oc1nc(Nc2ccc(S(=N)(=O)C3CC3)cc2)ncc1C(F)(F)F (mixture of isomers) : value?
Reply: 12 nM

Query: Form entry - test system: HeLa; read-out: IC50; compound: C[C@@H](O)[C@@H](C)Nc1nc(Nc2ccc(S(C)(=N)=O)cc2)ncc1C(F)(F)F (single isomer, unassigned)
Reply: 25 nM

Query: # query: IC50 | item C[C@@H](O)[C@@H](C)Nc1nc(Nc2ccc(S(=N)(=O)C3CC3)cc2)ncc1C(F)(F)F (mixture of isomers) | system: HeLa
Reply: 33 nM

These measurements were taken from patent US20130210846A1.
